Source of measurements: paper PMC4598832

- measuredOn: Olfr73 (mOR-EG) wt (Mus musculus)
- Construct: Rho (rhodopsin) tag; Myc; Flag; expressed in transfected cells; host or cells: Hana 3A cells
- Sequence (Q920P2 1-313): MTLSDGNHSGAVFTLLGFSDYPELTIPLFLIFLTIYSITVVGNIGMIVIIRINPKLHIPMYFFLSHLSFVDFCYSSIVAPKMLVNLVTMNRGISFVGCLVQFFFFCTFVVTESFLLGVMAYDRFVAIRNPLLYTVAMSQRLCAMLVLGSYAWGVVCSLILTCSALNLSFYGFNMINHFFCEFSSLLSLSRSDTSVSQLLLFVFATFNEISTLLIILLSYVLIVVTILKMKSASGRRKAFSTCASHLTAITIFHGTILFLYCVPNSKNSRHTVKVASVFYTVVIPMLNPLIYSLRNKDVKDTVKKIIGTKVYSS
- methodNotes: cAMP reporter gene (SEAP) assay, Olfr73 wild type in Hana3A cells
- Assay type: cell-based
- conditionLabel: EC50 Olfr73 wt, Hana3A cells, SEAP reporter; dash in Table 1 = no measurable response
resultType: EC50 (µM)
Answers are plain numbers, in µM.

# map each compound to its EC50
1. C=C(C)[C@@H]1CCC2=CC(=O)C[C@@H](C)[C@]2(C)C1
2. CCOc1cc(C=O)ccc1O

1. 225
2. 35
